# Tgt: Glycogen synthase kinase-3 alpha (Homo sapiens) (UniProt P49840)
# Sequence (P49840 whole entry, looked up): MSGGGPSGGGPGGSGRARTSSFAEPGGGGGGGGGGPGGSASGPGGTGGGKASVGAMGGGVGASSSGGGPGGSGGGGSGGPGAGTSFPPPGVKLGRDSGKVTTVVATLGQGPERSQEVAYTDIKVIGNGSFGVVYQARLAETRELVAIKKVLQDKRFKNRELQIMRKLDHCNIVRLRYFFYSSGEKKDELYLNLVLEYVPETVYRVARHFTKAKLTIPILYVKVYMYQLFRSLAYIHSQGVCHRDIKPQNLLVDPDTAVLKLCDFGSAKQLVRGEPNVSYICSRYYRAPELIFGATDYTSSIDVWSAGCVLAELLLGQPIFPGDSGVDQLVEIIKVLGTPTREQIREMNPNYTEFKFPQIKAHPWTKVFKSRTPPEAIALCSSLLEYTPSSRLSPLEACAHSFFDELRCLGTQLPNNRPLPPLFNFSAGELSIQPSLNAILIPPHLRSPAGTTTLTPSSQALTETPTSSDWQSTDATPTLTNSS
# Method Summary: concentration-response blocking of human GSK3A – biochemical, luminescence, cell-free homogeneous, retest, dose response (AID 463203)
# Assay Setup: GSK-3 alpha enzyme, ADP-Glo luminescence, 60 min
Activity calls are given as the source filed them.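 Rule for the calls: active = more than half of replicate measurements showing over 20% loss of kinase signal relative to plate controls; inconclusive = some but at most half of replicates over 20% loss; inactive = no replicate over 20% signal loss.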
Write down one outcome, taken from yes (1) (active), no (0) (inactive)

Molecule | Group
NC(=O)NCC12CC3CC(CC(C3)C1)C2 | no (0)
COCCNC(=O)c1ccc(Cn2c(=S)[nH]c3cc4c(cc3c2=O)OCO4)cc1 | no (0)
CCCCOc1ccc(CSc2nc(C)[nH]c2[N+](=O)[O-])cc1[N+](=O)[O-] | no (0)
Cc1ccnc(NC(=O)CCC(=O)N(CC(=O)NCc2ccccc2)Cc2ccc(F)cc2)c1 | yes (1)
CC(=O)Oc1ccc2ccc(=O)oc2c1 | no (0)
COc1cc(OC)cc(C2C(C#N)=C(N)Oc3n[nH]c(-c4cccnc4)c32)c1 (stereo not given) | no (0)

Any idea what this test logged for O=c1[nH]c(=O)n(C2CCCCC2)c(O)c1C=NCCCn1ccnc1 ? yes (1)

###

# Tgt: Glycogen synthase kinase-3 alpha (Homo sapiens) (UniProt P49840)
# Method Summary: concentration-response blocking of human GSK3A – biochemical, luminescence, cell-free homogeneous, retest, dose response (AID 463203)
# Assay Setup: GSK-3 alpha enzyme, ADP-Glo luminescence, 60 min
Activity calls are given as the source filed them.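 How the source made its calls: active means more than half of replicate measurements showing over 20% loss of kinase signal relative to plate controls; inconclusive means some but at most half of replicates over 20% loss; inactive means no replicate over 20% signal loss.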
Response enum: 1 = active, -1 = inactive

Consider the following illustrative entries.
Structure As Smiles | Group
COc1ccccc1NC(=O)CSc1ccc2nnc(-c3ccc(C)cc3)n2n1 | 1
O=P(COCCOCP(=O)(c1ccccc1)c1ccccc1)(c1ccccc1)c1ccccc1 | -1
COc1cccc(Nc2nc(N)c([N+](=O)[O-])c(NCc3ccco3)n2)c1 | 1
CCNC(=S)NNC(=O)c1cccs1 | -1
CNS(=O)(=O)c1cccc(C(=O)OCC(=O)Nc2ccc(Cl)cn2)c1 | 1

Per the assay record, what outcome was assigned to CC1(C)Oc2ccc3ccc(=O)oc3c2-c2cnoc21 ? -1

###

# Tgt: Glycogen synthase kinase-3 alpha (Homo sapiens) (UniProt P49840)
# Method Summary: concentration-response blocking of human GSK3A – biochemical, luminescence, cell-free homogeneous, retest, dose response (AID 463203)
# Assay Setup: GSK-3 alpha enzyme, ADP-Glo luminescence, 60 min
The source made the active and inactive calls.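 How the source made its calls: active means more than half of replicate measurements showing over 20% loss of kinase signal relative to plate controls; inconclusive means some but at most half of replicates over 20% loss; inactive means no replicate over 20% signal loss.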
The reply should be one of these categories: class 1 for active, class 0 for inactive

Previously resolved entries follow.
Molecule | Group
Nc1c(C(=O)NCc2ccco2)c2nc3ccccc3nc2n1CCN1CCOCC1 | class 0
O=C(NCc1ccccc1)c1ccc2c(=O)[nH]c3c(C(=O)NCC4CCCO4)sc(=S)n3c2c1 (stereo not drawn) | class 1
CC(C)(C)OC(=O)N1CCC(NC(=O)c2nc[nH]c2C(=O)NC2CCN(C(=O)OC(C)(C)C)CC2)CC1 | class 0
CC(C)CCSc1cc(NCCO)c([N+](=O)[O-])c2nonc12 | class 0
O=[N+]([O-])c1cc(S(=O)(=O)N2CCCCC2)ccc1NCCCN1CCOCC1 | class 0

Tell me the recorded outcome of this test for COc1ccccc1N/C=C/c1onc(C)c1[N+](=O)[O-] . class 0

###

# Tgt: Glycogen synthase kinase-3 alpha (Homo sapiens)
# Method Summary: concentration-response blocking of human GSK3A – biochemical, luminescence, cell-free homogeneous, retest, dose response (AID 463203)
# Assay Setup: GSK-3 alpha enzyme, ADP-Glo luminescence, 60 min
Activity calls are given as the source filed them.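 How the source made its calls: active means more than half of replicate measurements showing over 20% loss of kinase signal relative to plate controls; inconclusive means some but at most half of replicates over 20% loss; inactive means no replicate over 20% signal loss.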
Respond using exactly one of the listed classes: active, inactive

Solved cases below.
Compound | Tgt | Group
Nc1nonc1-n1nnc(C(=O)N/N=C/c2cccc(Cl)c2)c1-c1cccs1 | Glycogen synthase kinase-3 alpha (Homo sapiens) | active
O=C(CNS(=O)(=O)c1ccccc1)N/N=C/c1ccc(O)cc1 | Glycogen synthase kinase-3 alpha (Homo sapiens) | active
COc1ccc(CNC(=O)CN(CC2CCCO2)C(=O)CNS(=O)(=O)c2ccccc2)cc1 (stereo unspecified) | Glycogen synthase kinase-3 alpha (Homo sapiens) | inactive

Which outcome was assigned to COC(=O)c1cn(C(=O)c2ccccc2F)nc1N in this test? inactive

Test call, this compound: COC(=O)c1c(NC(=O)CN2C(=O)NC3(CCCCC3C)C2=O)sc2c1CCC2 (stereo unspecified) inactive

Given COc1ccccc1Nc1nc(NCCCCO)nc(N2CCCC2)n1 , state the outcome it received in this test. inactive

Which outcome did this test record for the compound COCCCNC(=O)C(=O)NC1CCCCC1C (stereo unspecified) ? inactive

# fetch the recorded call for Cc1cc(C)nc(NC(=O)/C=C/c2cccs2)c1 here inactive

Dear colleague, could you share the recorded outcome for CCOC(=O)c1nnn(-c2ccc(OC)cc2)c1N when you have a moment? inactive

Call for entry O=[N+]([O-])c1cc(S(=O)(=O)N2CCCC2)ccc1NCCCN1CCOCC1 : inactive

For Nc1nc(NCCO)nc(N2CCCCCC2)c1[N+](=O)[O-] , which call appears in the assay record? active

Could you kindly confirm the outcome this assay logged for COCCCNC(=O)C(=O)NC1CCCCCC1 ? inactive

Hi team, can someone confirm the assay call for Cc1c(C(=O)OC2CCCCC2)[nH]c2c1C(=O)CC(C)(C)C2 ? inactive

How did this test come out for N#C/C(C(N)=O)=C1/CCc2ccccc2N1 ? active

Check the results log: what was the call for COC(=O)c1oc2ccc(Br)cc2c1NC(=O)c1ccccc1 ? inactive

Recorded test call requested for CCN1C(=S)SC(=O)C1=C1C=C(C)N(Cc2ccco2)C(C)=C1 inactive

What classification did O=[N+]([O-])c1ccc(Nc2nc(NC3CCCCC3)nc(N3CCCC3)n2)cc1 end up with in this test? inactive

Recorded test outcome, item CN(C)c1nc2sc3c(c2c(=O)n1C)CC(C)(C)OC3 inactive

Entry CCOc1ccc(-c2nc(N)ncc2-c2ccccc2)c(O)c1 : call = ? active

Please share the test call associated with N#Cc1cc(-c2cccc(Cl)c2)c[nH]c1=O . inactive

Query: recorded result category for CS(=O)(=O)N1CCN(c2ccc(NC(=O)c3ccc(Br)o3)cc2)CC1 in this test inactive

###

# Tgt: Glycogen synthase kinase-3 alpha (Homo sapiens) (UniProt P49840)
# Method Summary: concentration-response blocking of human GSK3A – biochemical, luminescence, cell-free homogeneous, retest, dose response (AID 463203)
# Assay Setup: GSK-3 alpha enzyme, ADP-Glo luminescence, 60 min
Active and inactive are the calls of the source.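 How the source made its calls: active means more than half of replicate measurements showing over 20% loss of kinase signal relative to plate controls; inconclusive means some but at most half of replicates over 20% loss; inactive means no replicate over 20% signal loss.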
Please reply with one of these outcomes: 1 (yes) = active, 0 (no) = inactive

Look over these answered cases.
Compound | Group
CCOc1ccc2ccccc2c1/C=N/n1cncn1 | 0 (no)
COCCNc1nnc(SCC(=O)NC2CCCCC2)s1 | 0 (no)
Cc1nc(NCC2CCCO2)[nH]c(=O)c1CCC(C)C (stereo not given) | 0 (no)
Nc1n[nH]c2cc(=O)n(-c3ccc(Cl)cc3)nc12 | 1 (yes)
COc1ccc(CC(=S)N2CCOCC2)cc1OC | 0 (no)

Outcome logged for COc1ccccc1/C=C1\S/C(=N/NC(=O)c2cccc(Br)c2)NC1=O in this assay: 0 (no)

Just curious, what result did N#Cc1sc2nc3c(c(-c4ccco4)c2c1N)CCCC3 get here? 1 (yes)

Called result for COc1cccc(C2CC(=O)N3CN(c4ccccc4F)CSC3=C2C#N)c1 (stereo not given) 0 (no)

Look up the recorded call for C=CCn1cnc2c(c1=O)c1nc3ccccc3nc1n2/N=C/c1cc(OC)c(OC)c(OC)c1 in this test. 0 (no)

Outcome logged for Cc1ccc(S(=O)(=O)c2c(C(=O)c3ccccc3)cnc3cc4c(cc23)OCCO4)cc1 in this assay: 0 (no)

Hi, do you know how Cc1ccc(-c2cn3cccnc3n2)cc1NC(=O)c1c(-c2ccccc2Cl)noc1C came out in this test? 0 (no)

Lab log entry: O=C(c1ccco1)N(Cc1ccc([N+](=O)[O-])cc1)c1ccc(Br)cc1 — outcome as called in the assay? 0 (no)

What classification did COc1ccc(CC(=O)Oc2ccc(C)cc2C)cc1 end up with in this test? 0 (no)

Outcome? CCc1nnc(NC(=O)CCc2nc(C3=CCN(C)CC3)no2)s1 0 (no)

Outcome? Cc1cc(C(=O)c2cccs2)c(N)s1 1 (yes)

Per the records of this test, what outcome belongs to O=C(OC1CO[C@H]2O[C@@H]1[C@H](OC(=O)c1ccccc1)[C@H]2OC(=O)c1ccccc1)c1ccccc1 (stereo not given in full) ? 0 (no)

Returns: the outcome recorded for COc1ccccc1NC(=O)Nc1ccccc1Br in this assay. 0 (no)

Hi, do you know how CCN1C(=O)c2ccc(C(=O)NCc3ccc4c(c3)OCO4)cc2C1=O came out in this test? 0 (no)

Give the logged outcome of this assay for the following compound: N#Cc1c(C#N)c(-c2ccccc2)n(-c2ccc(C(=O)O)cc2)c1N 1 (yes)

Outcome logged for Cc1cc2nc(-c3ccc(=O)[nH]c3)n(Cc3ccccc3)c2cc1C in this assay: 0 (no)

So what was the verdict on COc1ccc2nc(NC(=O)CSc3nnc(-c4ccoc4C)n3C)sc2c1 in this test? 1 (yes)

Record request — test call for O=C(NCC1CCN(Cc2ccccc2Cl)CC1)Nc1cccc(Cl)c1 0 (no)

What outcome does the record of this test show for N#Cc1c(N)n(CCNC(=O)c2cccs2)c2nc3ccccc3nc12 ? 1 (yes)

src = PubChem BioAssay AID463203
